Tested on: mitochondria or chloroplast of Chlamydomonas reinhardtii
Protocol: Subcellular localization of Venus reporter by epifluorescence microscopy (manual targeting assignment)
Format: cell-based
Condition details: manual targeting assignment of the Venus reporter construct in Chlamydomonas: Neither / Mitochondria / Chloroplast / Dual, (partial) = partial targeting
Quantity kind: Localisation

Sample records with Localisation:
Localisation in this record for MGLLLDTLRGAARDIAGIALERLRCRITGCRPLTQTAESFRGVSSQFFDAPNGPSVKQVLIEDEW [R2G.R.m] : Mitochondria

Localisation in this record for MGRIPVRAIRRAGAAIGRGLRAINIASTAHDVYSFFRPRHRRRSVRRAQLQVVASSRKQMGRWRSIDAGVDASDDQ [SIM.R.c] : Neither

Localisation in this record for MGGAKVATKSVKKAQLQVVASSKKQMGKWKSIDAGVDASDDQ [CH.K.c] : Neither

Localisation in this record for MGWIRDFGRRIERVGQHTRDATIQTIAVAQQAANVAATLRGSVRRAQLQVVASSRKQMGRWRSIDAGVDASDDQ [S1D.R.c] : Chloroplast (partial)

Localisation in this record for MQVTMKSSAVSGQRVMGWIRDFGRRIERVGQHTRDATIQTIAVAQQAANVAATLRG [c.S1D.R] : Mitochondria

---
Localisation in this record for MQVTMKSSAVSGQRVSFLTTFRDLAIRAARSAGQSVLSTLSCRLSNTCSVRRAQLQVVASSRKQMGRWRSIDAGVDASDDQ [c.B2I.R.c] : Chloroplast

Localisation in this record for MQVTMKSSAVSGQRVALWRTMLRRLGTMALHAGRAAFGAAADTISQSVRRAQLQVVASSRKQMGRWRSIDAGVDASDDQ [c.DDM.R.c] : Chloroplast

Localisation in this record for MQVTMKSSAVSGQRVRYYGNGVSCNRRGCSVDWGRAIGIIGNNAAANLTTGGRAGWRG [c.EHF.R] : Chloroplast (partial)

Localisation in this record for MQVTMKSSAVSGQRVMGLLLDTLRGAARDIAGIALERLRCRITGCRPSVRRAQLQVVASSRKQMGRWRSIDAGVDASDDQ [c.R2G.R.c] : Dual
